Settings: anaerostipes sp., 12 h, 2 µM
Description: The drug is tested on Anaerostipes sp. strain: fecal isolate for biotransformation. The drug concentrations were measured before and after a 12-h incubation by liquid-chromatography-coupled mass spectrometry (LC–MS)
PARAMETER: Bacterial Biotransformation

COMPOUND	Bacterial Biotransformation
CC(C)NCC(O)COc1ccc(CC(N)=O)cc1 (centres undefined) [ATENOLOL]	Compound NOT metabolized
CC(=O)Nc1ccc(OC(C)=O)cc1 [DIACETAMATE]	Compound metabolized
CCN(CC)CC#CCOC(=O)C(O)(c1ccccc1)C1CCCCC1.Cl (centres undefined) [OXYBUTYNIN CHLORIDE]	Compound NOT metabolized
COc1c2occc2cc2ccc(=O)oc12 [METHOXSALEN]	Compound metabolized
CC[C@H](C)C(=O)O[C@H]1C[C@@H](C)C=C2C=C[C@H](C)[C@H](CC[C@@H]3C[C@@H](O)CC(=O)O3)[C@H]21 [LOVASTATIN]	Compound NOT metabolized
CC(C)(C)NCC(O)c1cc(Cl)c(N)c(Cl)c1 (centres undefined) [CLENBUTEROL]	Compound NOT metabolized
CN1CCC(=C2c3ccccc3CCc3cccnc32)CC1.O=C(O)/C=C\C(=O)O.O=C(O)/C=C\C(=O)O [AZATADINE MALEATE]	Compound NOT metabolized
CN1CCc2cccc3c2[C@H]1Cc1ccc(O)c(O)c1-3 [APOMORPHINE]	Compound NOT metabolized

// next item, Bacterial Biotransformation requested
Lookup: GET /values?readout=Bacterial Biotransformation&item= Cc1nc2n(c(=O)c1CCN1CCC(c3noc4cc(F)ccc34)CC1)CCCC2O (centres undefined) [PALIPERIDONE]
Found: Compound metabolized

====

Details: segatella copri, 12 h, 2 µM
Description: The drug is tested on Prevotella copri strain: DSM18205 for biotransformation. The drug concentrations were measured before and after a 12-h incubation by liquid-chromatography-coupled mass spectrometry (LC–MS)
PARAMETER: Bacterial Biotransformation

Previously resolved entries follow.
MOLECULE	PARAMETER	READOUT_VALUE
Cc1ccc(-c2nc3ccc(C)cn3c2CC(=O)N(C)C)cc1 [ZOLPIDEM]	Bacterial Biotransformation	Compound NOT metabolized
O=C(CCCN1CCC2(CC1)C(=O)NCN2c1ccccc1)c1ccc(F)cc1 [SPIPERONE]	Bacterial Biotransformation	Compound NOT metabolized
CN1CCN(CC/C=C2/c3ccccc3Sc3ccc(S(=O)(=O)N(C)C)cc32)CC1 [THIOTHIXENE]	Bacterial Biotransformation	Compound metabolized
CCN(CC)CCOC(=O)C(Cc1cccc2ccccc12)CC1CCCO1.O=C(O)C(=O)O (stereo not given) [NAFRONYL OXALATE]	Bacterial Biotransformation	Compound metabolized

In the following, a different molecule is considered.
Lookup: Request the reported Bacterial Biotransformation associated with Cc1cc2c(s1)Nc1ccccc1N=C2N1CCN(C)CC1 [OLANZAPINE]
Found: Compound NOT metabolized

====

Conditions: bacteroides stercoris, 12 h, 2 µM
Description: The drug is tested on Bacteroides stercoris strain: ATCC43183 for biotransformation. The drug concentrations were measured before and after a 12-h incubation by liquid-chromatography-coupled mass spectrometry (LC–MS)
PARAMETER: Bacterial Biotransformation

Recorded Bacterial Biotransformation, per entry:
MOLECULE	Bacterial Biotransformation
COc1ccc2c3c1O[C@H]1C[C@@H](O)C=C[C@@]31CCN(C)C2 [GALANTAMINE]	Compound NOT metabolized
CC[C@H](C)C(=O)O[C@H]1C[C@@H](C)C=C2C=C[C@H](C)[C@H](CC[C@@H]3C[C@@H](O)CC(=O)O3)[C@H]21 [LOVASTATIN]	Compound NOT metabolized
CN(CCOc1ccc(CC2SC(=O)NC2=O)cc1)c1ccccn1.O=C(O)/C=C\C(=O)O (configuration not stated) [ROSIGLITAZONE MALEATE]	Compound NOT metabolized
CN1CCN(C(=O)O[C@H]2c3nccnc3C(=O)N2c2ccc(Cl)cn2)CC1 [ESZOPICLONE]	Compound NOT metabolized
CCCCC(=O)O[C@]1(C(=O)CO)[C@@H](C)C[C@H]2[C@@H]3CCC4=CC(=O)C=C[C@]4(C)[C@@]3(F)[C@@H](O)C[C@@]21C [BETAMETHASONE VALERATE]	Compound metabolized
CC(C)c1c(CN(C)C(C)Cc2ccccc2)n(C)n(-c2ccccc2)c1=O (configuration not stated) [FAMPROFAZONE]	Compound metabolized

# next molecule below
Lookup: Tell me the measured Bacterial Biotransformation of CC[C@H](C)C(=O)O[C@H]1CCC=C2C=C[C@H](C)[C@H](CC[C@@H]3C[C@@H](O)CC(=O)O3)[C@H]21 [MEVASTATIN] , please.
Found: Compound metabolized
